measuredOn: Proto-oncogene tyrosine-protein kinase Src (Homo sapiens) (UniProt P12931)
Sequence (P12931 2-536 limits assumed): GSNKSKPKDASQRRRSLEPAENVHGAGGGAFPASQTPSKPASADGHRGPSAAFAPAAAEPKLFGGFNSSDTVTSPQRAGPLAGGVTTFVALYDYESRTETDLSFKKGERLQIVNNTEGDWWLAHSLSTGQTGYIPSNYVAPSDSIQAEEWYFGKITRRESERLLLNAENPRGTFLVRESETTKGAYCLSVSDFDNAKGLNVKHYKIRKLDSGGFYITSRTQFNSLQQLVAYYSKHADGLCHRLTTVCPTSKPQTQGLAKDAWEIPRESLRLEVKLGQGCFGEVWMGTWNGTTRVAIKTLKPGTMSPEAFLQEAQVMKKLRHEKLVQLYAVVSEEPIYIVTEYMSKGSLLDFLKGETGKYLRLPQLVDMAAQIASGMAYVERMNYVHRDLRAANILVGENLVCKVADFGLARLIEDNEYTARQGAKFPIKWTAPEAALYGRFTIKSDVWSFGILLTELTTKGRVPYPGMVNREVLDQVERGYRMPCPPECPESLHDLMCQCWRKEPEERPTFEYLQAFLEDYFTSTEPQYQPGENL
experimentSummary: Percent inhibition determined against human recombinant p60 c-Src tyrosine kinase at 100 uM
testReadout: inhibition (%)

Below, 5 compounds whose answers are already recorded.
inhibition for COc1cccc(NC(=O)c2cc3cc(O)ccc3[nH]2)c1 is 21

Record summary for O=C(NCc1cccc(O)c1)c1cc2cc(O)ccc2[nH]1 : reported inhibition = 74

# compound COc1ccc(CNC(=O)c2cc3cc(O)ccc3[nH]2)cc1 ; its inhibition = 18

Entry under test: O=C(NCc1ccc(O)cc1)c1cc2ccccc2[nH]1 . Its inhibition was 36

// field: inhibition; key: C[C@@H](NC(=O)c1cc2cc(O)ccc2[nH]1)c1cccc(O)c1 ; value = 15

1: O=C(NCc1cccc(F)c1)c1cc2cc(O)ccc2[nH]1
2: COC(=O)Cc1ccc(NC(=O)c2cc3cc(O)ccc3[nH]2)cc1
In: Between 1 and 2 , whose measured inhibition reads higher? Bench note: the answer is the label of the chosen record.
Out: 1
(1: 57%, 2: 32%)

a: O=C(Nc1ccccc1O)c1cc2cc(O)ccc2[nH]1
b: O=C(NCc1ccccc1O)c1cc2cc(O)ccc2[nH]1
In: Form: Entry with minimum inhibition (choose one): a / b Let me know the label of the one you choose.
Out: b
(b: 24%, a: 43%)
